molecular target: HIV Env of isolate BJOX010000.06.2 (clade AE) (HIV); test: cell-based or functional assay
As shown below, each of these binders has a reported IC50 (µg/ml) with constrains value.

binder	IC50 (µg/ml) with constrains, µg/mL
ePGDM9 (antibody, V domains shown) VH: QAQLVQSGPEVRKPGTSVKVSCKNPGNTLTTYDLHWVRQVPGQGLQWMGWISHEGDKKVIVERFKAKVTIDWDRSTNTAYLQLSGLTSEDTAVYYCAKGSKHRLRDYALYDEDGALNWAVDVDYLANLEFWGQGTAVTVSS VL: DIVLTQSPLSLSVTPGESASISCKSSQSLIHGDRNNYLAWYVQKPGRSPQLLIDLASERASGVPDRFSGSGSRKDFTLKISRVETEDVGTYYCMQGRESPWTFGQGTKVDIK	0.293
PGDM1400 (antibody, V domains shown) VH: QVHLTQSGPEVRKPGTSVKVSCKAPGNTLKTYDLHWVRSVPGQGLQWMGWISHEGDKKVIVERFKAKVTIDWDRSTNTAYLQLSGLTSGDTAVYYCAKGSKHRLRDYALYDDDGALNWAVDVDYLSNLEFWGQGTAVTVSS VL: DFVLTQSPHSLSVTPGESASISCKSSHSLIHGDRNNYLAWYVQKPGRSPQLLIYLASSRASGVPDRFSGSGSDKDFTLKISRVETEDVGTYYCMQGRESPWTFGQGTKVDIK	0.871
ePGDM13 (antibody, V domains shown) VH: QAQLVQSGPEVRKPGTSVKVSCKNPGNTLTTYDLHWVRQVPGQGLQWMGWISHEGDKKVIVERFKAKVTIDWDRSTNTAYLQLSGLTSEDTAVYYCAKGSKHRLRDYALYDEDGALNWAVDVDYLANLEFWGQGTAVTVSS VL: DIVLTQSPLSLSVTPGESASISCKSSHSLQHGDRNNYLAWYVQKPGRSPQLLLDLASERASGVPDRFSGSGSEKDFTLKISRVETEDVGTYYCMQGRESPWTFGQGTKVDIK	0.979
ePGDM5 (antibody, V domains shown) VH: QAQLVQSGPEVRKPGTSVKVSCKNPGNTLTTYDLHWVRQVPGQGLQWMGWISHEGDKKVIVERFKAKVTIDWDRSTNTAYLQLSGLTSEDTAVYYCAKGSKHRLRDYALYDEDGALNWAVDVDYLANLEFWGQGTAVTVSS VL: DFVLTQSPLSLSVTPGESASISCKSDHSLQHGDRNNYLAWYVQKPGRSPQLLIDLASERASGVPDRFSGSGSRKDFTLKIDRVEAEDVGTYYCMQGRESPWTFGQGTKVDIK	0.536

FYI, the data here is from patent US20230134571A1.
